method-notes: soluble on expression in E. coli; label from the status in PepcDB or PDB records
test-readout: soluble on expression in E. coli

* MPNTIRLHRVLSAPPERVYRAFLDPLALAKWLPPEGFVCKVLEHDARVGGAYKMEFLAFASGQKHAFGGRYLELVPGERIRYTDRFDDAGLPGDMITTITLAPLSCGADLSIVQEGIPDAIPPENCYLGWQQSLKQLAALVEPDMPGLEHHHHHH | soluble
* MGSDKIHHHHHHMPNTFEHLQAAHCENGVTTNLLRNVGVSKMTEPLAFGIGSGLFFIYIPLMKINGGPAIAYRTMPGLIFKRTAQSLGIDVVRKTFRSTIKAQEFLDACIKAGQPVGCQVGVYFLSYFPKEYRFHFNAHNLIVYGKEGDNYLVSDPVMETTNILSTYELERVRFAKGALAPKGQIYFPKPNHEPVSDDKIRKAIVTGVKRNIRDMLHIPGPIAGVSGIKYTGNKIKNWRDKLGIEKAGLYLAQLVRMQEEIGTGGGGFRFIYGAFLQQAHAFHNDDQLLEISKSFTQSGDLWRSAAIQAAGIYKGRITSQADFNVMGDYLLEISELEKKAFKELTKIKWQK | not soluble
* MDFKQHIAIVPDYPKEGIVFKDITPLMNDGKAYKAATDAIVEYAKERDIDLVVGPEARGFIIGCPVSYALEVGFAPVRKLGKLPREVITVDYGKEYGKDVLTIHKDAIKPGQRVLITDDLLATGGTIEATIKLVEELGGVVAGIAFLVELTYLDGRKMLDGYDVLVLEKY | not soluble
* MEKVMKCHRVEELLQLLEPEWHKDSELNLIQFLLKLAQEAGYQGALEDLTDDVLIYHLKMRNSAKDAVIPGLKKDYEDDFKTAILRARGIIK | not soluble
* MRYIRLCIISLLATLPLAVHASPQPLEQIKLSESQLSGRVGMIEMDLASGRTLTAWRADERFPMMSTFKVVLCGAVLARVDAGDEQLERKIHYRQQDLVDYSPVSEKHLADGMTVGELCAAAITMSDNSAANLLLATVGGPAGLTAFLRQIGDNVTRLDRWETELNEALPGDARDTTTPASMAATLRKLLTSQRLSARSQRQLLQWMVDDRVAGPLIRSVLPAGWFIADKTGAGERGARGIVALLGPNNKAERIVVIYLRDTPASMAERNQQIAGIGAALIEHWQR | soluble

Record MSYYHHHHHHLESTSLYKKAGFMADQLTPHLEIPTAIKPRDGRFGSGPSKVRLEQLQTLTTTAAALFGTSHRQAPVKNLVGRVRSGLAELFSLPDGYEVILGNGGATAFWDAAAFGLIDKRSLHLTYGEFSAKFASAVSKNPFVGEPIIITSDPGSAPEPQTDPSVDVIAWAHNETSTGVAVAVRRPEGSDDALVVIDATSGAGGLPVDIAETDAYYFAPQKNFASDGGLWLAIMSPAALSRIEAIAATGRWVPDFLSLPIAVENSLKNQTYNTPAIATLALLAEQIDWLVGNGGLDWAVKRTADSSQRLYSWAQERPYTTPFVTDPGLRSQVVGTIDFVDDVDAGTVAKILRANGIVDTEPYRKLGRNQLRVAMFPAVEPDDVSALTECVDWVVERL . Reported soluble on expression in E. coli: soluble

* * *

method-notes: soluble on expression in E. coli; label from the status in PepcDB or PDB records
test-readout: soluble on expression in E. coli

- MSLGEETSYCFKEKSRGVLREWYAHNPYPSPREKRELAEATGMTTTQVSNWFKNRRQRDRAAEAKERENTENEGHHHHHH: soluble
- MGSDKIHHHHHHMEDFWRIRATDTAWKGVLHLASPRRYSRGEVIIRAGEMVDSLFYLESGEVRMIRTSMEGSEKILMYIEEGTLFGETPFFTGQPILSTFVCSRPAVIWRFSRHSVYADLLPNHPEIVSSLLHTFAAKVSTLSNQSASLGLQNVAERLCTFLYVTSGESISGAHGAELKLSMKMRDIANLLGVHRTTLYKAIRDLEKEGVLENFTRDSVRIADVTRFLEMVHK: not soluble
- MNIEQQLYDVVKQLIEQRYPNDWGGAAAIRVEDGTIYTSVAPDVINASTELCMETGAILEAHKFQKKVTHSICLARENEHSELKVLSPCGVCQERLFYWGPEVQCAITNAKQDIIFKPLKELQPYHWTEAYHDEMVKEWSTR: soluble
- MGSDKIHHHHHHMIPIKVSMRNLSSLTIAGGSTISSIDIPLNPLGVPPSTIKGTMRTAVHNLLPNGYTSCGEVEPESIREAHKNGVCDVCKLFGYPDSLTGCFTIDVSKTDYRTSYITRVSIDDKTQRAKEGSLFTQQIILPNSDISFTVYYNCNDERLFKLLLYSILDLRYWRLGRNTMIDVKVNNVEEICKSVKCDEEINGILNQLSRYLWEAENK: not soluble
- TQEKRSYMEKLSDENGIISALAFDQRGALKRLMAQYQTQEPTIAQMEELKVLVAEELTPYASSMLLDPEYGLPAAKHLDKNAGLLLAYEKTGYDTTSTKRLPDCLVEWSAKRLKKQGADAVKFLLYYDVDGDEEVNQQKQAYIERIGSECKAEDIPFFLEILAYDETITDAASVEYAKVKPHKVLDAMKVFSDERFGIDVLKVEVPVNMKYVEGFGDGPIVHTQDQAANFFKQQDQATPLPYIYLSAGVSAKLFQDTLVFAKESGANFNGVLCGRATWAGSVKDYIEKGEAAARQWLRTEGFKNIDELNKVLKATATSWKE: not soluble

Consider the following items and state reported soluble on expression in E. coli for each.
1. MSHCSCHDKPQHSLLPAAYRILSITRHTPLEWNFRVAVDFPAHWGQFVEVSLPRVGEAPISVSDYGDGWIDLLIRNVGKVTSALFTLKEGDNVWLRGCYGNGYPVDTLRHKPLLVVAGGTGVAPVKGLMRYFVENPQEIGQLDMILGYKNRDCVLYKEEMATWRGKHNLVLTLDEGEADDRYQIGRVTDRLADMTLSDIDTMQAIVVGPPIMITFTVKMLLQKGLKPEQIWVDYERRMACSVGKCGHCRMGEVYVCTDGPIFNYAVAQRFAD
2. HGPAEISDLDRQIEQLRRCELIKESEVKALCAKAREILVEESNVQRVDSPVTVCGDIHGQFYDLKELFRVGGDVPETNYLFMGDFVDRGFYSVETFLLLLALKVRYPDRITLIRGNHESRQITQVYGFYDECLRKYGSVTVWRYCTEIFDYLSLSAIIDGKIFCVHGGLSPSIQTLDQIRTIDRKQEVPHDGPMCDLLWSDPEDTTGWGVSPRGAGYLFGSDVVAQFNAANDIDMICRAHQLVMEGYKWHFNETVLTVWSAPNYCYRCGNVAAILELDEHLQKDFIIFEAAPQETVRASSPSPL
3. MNRMEYNPIKKVVSGNYAAAYAALHARVQVVAAYPITPQTSIIEKIAEFIANGEADIQYIPVESEHSAMAACIGASATGARVFTATSAQGLALMHEMLHWAAGSRLPIVMVNVNRAMAPPWSVWDDQTDSLSQRDTGWMQFYAENNQEVYDGVLMAYKVAETVNIPTMIIESAFILSHTYEVVNMIPQELVDEFLPPRKPLYTLTDFENPIAVGALATPADYYEFRYKIAKAHEEAKKVIKSVGKEFGERFGRDYSKMIETGYIEDADFVFMGMGSLMGTVKEAVDLLRKEGYKVGYAKVRWFRPFPKEELLEIAESVKGIAVLDRNFSFGQEGILFTEAKGALYNTGVRPIMKDYIVGLGGRDFTVRDVKAIAEDMKKVVESGKLDKEIEWYHLKR

1: not soluble; 2: soluble; 3: soluble

Each sequence below has a reported value. Please supply its soluble on expression in E. coli.
1. MGSDKIHHHHHHMAAKIITVFNQKGGCGKTTVSMHLAGTLGLRGARSMLVDMDEQGTATRWAAQASDERPFPASVIGLAPSGGAMHREVRKFVQDYDYIVVDCPPAVHSAAPSSALLISDLAIIPVVPSPPDLWAAVAAKTLAQHAQVQNETLLIRVMANMVQRRVSIARQAIEILGDDGEVPLLNSMIGSRSAFRECQAIGCTVHGVAGAREAVQEVDMMVDEVLSLIEH
2. MAHHHHHHSLITANDIRAAHARGEQAMSVVLRASIITPEAREVAELLGFTITECDESVPASTSAQACKSESQRIREAIIAQLPEGQFTESLVAQLMEKVLKEKQSLELGTMQPSFTSVTGKGGVKVIDGSSVKFGRFDGAEPHCVGLTDLVTEQDGSSMAAGFMQWDNAFFPWTLNYDEIDMVLEGELHVRHEGETMIAKAGDVMFIPKGSSIEFGTPTSVRFLYVAWPANWQSVEG
3. MGSDKIHHHHHHMTPSMVEDVRIEQLWIPDSLDGPDSADFLAAVEVGRKVRMQTWGSDDLAYTPLEKLLEFADPYERQVILVARVEGNIVGTVDIALPLADNLDLAEFTLDILPEFQRQGVGRQLLEAAEQFARAEGRSMILIDTNHPGVSLSSSADDQLVPGSGLGFVPMGSREVEFARKTGYTLQHIEQFSSCLLPLDTKLVAELSDEAEQANAGRYRLHHWTDRCPDIWLEGVAALENQAGGDTEPSTRTDEQMVFDGAMIRKAEDATIAQGRRTVVTAVEHIATGTLVGLTTISVLSQRQDVVFQDDTVVMQEHRGNKLGLLIKVANMVRLTEQFPDARVIYTWNAPENRYLLKVNQQLGFNTAGVTGIWQKDLPDLGPSSS
4. DLTIDNGPEKGDLLVLGWGSTYGAIKKAVEQAREGGLDVAHAHLRYINPFPKNLGAMLGNFKKVLIPENNCGQLLSLIRDKFLIEPVGFSKVQGLPFNEMEIEEKITDILKEL

not soluble
soluble
not soluble
not soluble

Source listed as the DeepSol protein solubility set.
